# tgt: UniProt:O35433
# Sequence (O35433 whole entry): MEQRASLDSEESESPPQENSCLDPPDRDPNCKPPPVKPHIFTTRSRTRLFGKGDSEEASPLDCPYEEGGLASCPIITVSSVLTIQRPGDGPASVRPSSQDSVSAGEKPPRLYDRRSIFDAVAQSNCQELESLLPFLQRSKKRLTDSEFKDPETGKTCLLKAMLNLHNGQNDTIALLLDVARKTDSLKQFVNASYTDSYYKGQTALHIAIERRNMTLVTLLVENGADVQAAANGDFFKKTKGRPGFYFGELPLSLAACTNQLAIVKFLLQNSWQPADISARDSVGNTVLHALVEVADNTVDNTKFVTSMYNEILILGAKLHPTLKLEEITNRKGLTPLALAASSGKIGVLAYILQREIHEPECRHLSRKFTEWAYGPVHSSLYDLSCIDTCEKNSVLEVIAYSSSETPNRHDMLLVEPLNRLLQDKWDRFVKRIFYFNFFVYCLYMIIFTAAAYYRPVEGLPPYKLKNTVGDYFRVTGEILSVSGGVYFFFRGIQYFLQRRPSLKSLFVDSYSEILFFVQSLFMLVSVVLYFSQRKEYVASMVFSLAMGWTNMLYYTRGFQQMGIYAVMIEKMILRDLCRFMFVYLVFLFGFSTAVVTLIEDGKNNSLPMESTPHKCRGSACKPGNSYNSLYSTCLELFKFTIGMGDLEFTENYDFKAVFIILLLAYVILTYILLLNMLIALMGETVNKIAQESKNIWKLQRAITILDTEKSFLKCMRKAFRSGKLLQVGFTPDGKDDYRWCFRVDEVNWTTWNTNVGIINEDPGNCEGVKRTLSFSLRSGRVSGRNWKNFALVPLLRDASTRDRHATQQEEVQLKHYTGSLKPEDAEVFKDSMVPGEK
# protocol: Functional assay: block of capsaicin-induced Ca2+ influx, rat assay (rTRPV1/HEK293, FLIPR)
# conditions: rTRPV1/HEK293 cells, capsaicin challenge, Fluo-3 fluorescence; mean; > value = solubility limit in assay medium
Mark t for IC50 under 40 nM, f if at or over.

Q) Consider COC[C@@H]1CCCN1c1nc(Nc2ccc(C(F)(F)F)cc2)c2nc(Nc3c(Cl)cccc3Cl)sc2n1 . Does its IC50 lie strictly below 40 nM?
A) t

Q) State whether 40 nM exceeds IC50 recorded for OCC1CN(c2nc(Nc3ccc(C(F)(F)F)c(Cl)c3)c3nc(Nc4c(Cl)cccc4Cl)sc3n2)CCO1 (racemic) .
A) f

Q) Hello, I'm reviewing records and need to know if IC50 of Cc1nc(Nc2ccc(C(C)(C)O)cc2)c2nc(Nc3c(Cl)cccc3Cl)sc2n1 is below 40 nM. Could you check?
A) t

Q) For this molecule, is IC50 lower than 40 nM? Cc1nc(Nc2ccc(C(F)(F)F)cc2)c2nc(Nc3c(C)noc3C)sc2n1
A) f

Q) Lab log: compare recorded IC50 with 40 nM; is it strictly lower for Cc1cccc(C)c1Nc1nc2c(Nc3cccc(C(F)(F)F)c3)ncnc2s1 ?
A) f

Q) State whether 40 nM exceeds IC50 recorded for FC(F)(F)c1ccc(Nc2ncnc3sc(Nc4c(Cl)cccc4Cl)nc23)cc1Cl .
A) t

Q) Regarding Cc1noc(C)c1Nc1nc2c(Nc3ccc(S(C)(=O)=O)cc3)ncnc2s1 , kindly confirm whether its IC50 is beneath 40 nM.
A) f

Q) Decide: IC50 of Cc1ccc(Nc2ncnc3sc(Nc4c(C)cccc4C)nc23)cc1C strictly below 40 nM?
A) f

Q) Strictly below 40 nM in IC50? Cc1ccccc1Nc1nc2c(Nc3ccc(S(C)(=O)=O)cc3)ncnc2s1
A) t

Q) In the record for Cc1cccc(C)c1Nc1nc2c(Nc3ccc(NS(C)(=O)=O)cc3)ncnc2s1 , is IC50 less than 40 nM?
A) f

Q) API: query returns whether the molecule falls strictly under 40 nM in IC50. Query: Cc1nc(Nc2ccc(S(=O)(=O)C(C)C)cc2)c2nc(Nc3c(Cl)cccc3Cl)sc2n1
A) t

Q) Lab note: IC50 threshold 40 nM. Does this molecule come in strictly under it? COC[C@H]1CCCN1c1nc(Nc2ccc(C(F)(F)F)cc2)c2nc(Nc3c(Cl)cccc3Cl)sc2n1
A) f

Q) Strictly below 40 nM in IC50? Cc1nc(Nc2ccc(C(=O)N(C)C)cc2)c2nc(Nc3c(Cl)cccc3Cl)sc2n1
A) f

Q) Check if IC50 falls below 40 nM for CSc1nc(Nc2ccc(C(F)(F)F)cc2)c2nc(Nc3c(Cl)cccc3Cl)sc2n1 .
A) f

Q) API: query returns whether the molecule falls strictly under 40 nM in IC50. Query: Cc1cccc(C)c1Nc1nc2c(Nc3ccc(C(C)(C)C)cc3)ncnc2s1
A) t

Q) Input CC(C)(C#N)c1ccc(Nc2ncnc3sc(Nc4c(Cl)cccc4Cl)nc23)cc1 ; condition: IC50 strictly below 40 nM. Does it hold?
A) f

Q) Given the entry NC(=O)c1cc(Cl)c(Nc2nc3c(Nc4ccc(C(F)(F)F)cc4)ncnc3s2)c(Cl)c1 , would its reported IC50 be below 40 nM?
A) f

Q) Does Cc1nc(Nc2ccc(S(=O)(=O)N3CCCC3)cc2)c2nc(Nc3c(C)cccc3C)sc2n1 have IC50 strictly under 40 nM?
A) t

Q) Report whether reported IC50 is lower than 40 nM (strictly) for Cc1cccc(C)c1Nc1nc2c(Nc3ccc(C(F)(F)F)cc3)ncnc2s1
A) t

Q) Please determine if Cc1nc(Nc2ccc(C(F)(F)F)nc2)c2nc(Nc3c(-c4ccccc4)noc3C)sc2n1 is below 40 nM in terms of IC50.
A) f

Q) Lab note: confirm whether the reported IC50 for this molecule is below 40 nM, equality not counting. molecule: Cc1nc(Nc2ccc(S(C)(=O)=O)cc2)c2nc(Nc3c(C)cccc3C)sc2n1
A) t

Q) Determine whether this molecule shows IC50 lower than 40 nM (ties excluded): CS(=O)(=O)c1ccc(Nc2nc(N3CCOCC3)nc3sc(Nc4c(Cl)cccc4Cl)nc23)cc1
A) f

Q) Find out if reported IC50 for Cc1noc(C)c1Nc1nc2c(Nc3ccc(C(C)(C)C)cc3)ncnc2s1 is less than 40 nM
A) t

Q) Dear reviewer, please state whether Cc1cccc(C)c1Nc1nc2c(Nc3ccc(C(F)(F)F)cn3)ncnc2s1 has IC50 strictly beneath 40 nM.
A) f

Q) Input FC(F)(F)c1ccc(Nc2nc(N3CCNCC3)nc3sc(Nc4c(Cl)cccc4Cl)nc23)cc1 ; condition: IC50 strictly below 40 nM. Does it hold?
A) f

Q) Does FC(F)(F)c1ccc(Nc2ncnc3sc(Nc4c(Cl)cccc4C(F)(F)F)nc23)cn1 have IC50 strictly under 40 nM?
A) t

Q) Check if IC50 falls below 40 nM for Cc1nc(Nc2ccc(C#N)cc2)c2nc(Nc3c(Cl)cccc3Cl)sc2n1 .
A) t

Q) Consider the molecule Cc1cccc(C)c1Nc1nc2c(Nc3ccc(Cl)cc3)ncnc2s1 . Is its IC50 strictly less than 40 nM?
A) f

Q) Input Cc1ccc(Nc2ncnc3sc(Nc4c(C)cccc4C)nc23)cc1 ; condition: IC50 strictly below 40 nM. Does it hold?
A) t

Q) For Cc1nc(Nc2ccc(S(=O)(=O)C(C)C)cc2)c2nc(Nc3c(C)cccc3C)sc2n1 , is the recorded IC50 below the cut-off of 40 nM?
A) t

Q) Criterion: IC50 strictly below 40 nM. Is it met by CC(C)(O)CNc1nc(Nc2ccc(C(F)(F)F)cc2)c2nc(Nc3c(Cl)cccc3Cl)sc2n1 ?
A) f

Q) For Cc1cccc(C)c1Nc1nc2c(Nc3ccc(S(=O)(=O)C(C)C)cc3)ncnc2s1 , is the recorded IC50 below the cut-off of 40 nM?
A) f
